// provenance: PubChem BioAssay

METHOD DESCRIPTION: reversal of MRP1-mediated doxorubicin resistance, pilot screen, H69AR cells, doxorubicin co-treatment (AID 601)
EXPERIMENTAL PARAMETERS: H69AR cells + 2 uM doxorubicin, CellTiter-Glo, 72 h; measured here: viability with 2 uM doxorubicin; at 10 µM; stronger effect = lower value
ENDPOINT LABEL: viability
Include the unit right after the number.

[[record]]
molecule = "CN1Cc2c(N)cccc2C(c2ccccc2)C1 (stereo unspecified)"
readout_value = "96.5%"

[[record]]
molecule = "COc1cccc(C(c2nnnn2CCc2ccccc2)N2CCN(c3ccccc3)CC2)c1OC (stereo unspecified)"
readout_value = "91%"

[[record]]
molecule = "CCCCn1nnc(NC(=O)c2cc3ccccc3o2)n1"
readout_value = "90.3%"

[[record]]
molecule = "COc1cc(N2C(=O)CSC23C(=O)Nc2ccccc23)cc(OC)c1OC (stereo unspecified)"
readout_value = "87.8%"

[[record]]
molecule = "N[C@@H](Cc1cc(I)c(Oc2ccc(O)c(I)c2)c(I)c1)C(=O)O"
readout_value = "90.8%"

[[record]]
molecule = "O=S(=O)(NCCCCCNS(=O)(=O)c1ccccc1)c1ccccc1"
readout_value = "107%"

[[record]]
molecule = "CC(C)CCn1c(N)c(S(=O)(=O)c2cccs2)c2nc3ccccc3nc21"
readout_value = "57.7%"

[[record]]
molecule = "C/C(N)=C(/C#N)C(=O)COC(=O)COc1ccc(Cl)cc1"
readout_value = "97.7%"

[[record]]
molecule = "CCN(C(=O)c1cn(C)c(=O)c2cc(OC)c(OC)cc12)c1ccccc1C"
readout_value = "91%"

[[record]]
molecule = "O=C(CNc1ccc(Oc2ccccc2)cc1)N1CCOCC1"
readout_value = "100%"


Then there is this molecule:
# viability lookup, item c1ccc2c(CC3=NCCN3)cccc2c1
78.9%

====

METHOD DESCRIPTION: viability gain of MRP-1-high H69AR cells under doxorubicin, pilot screen, MRP-1 activator project, CellTiter-Glo, duplicate (AID 807);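 further: compound pretreatment 18-22 h then 72 h combined with doxorubicin; 0% = doxorubicin alone and 100% = vehicle without doxorubicin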
EXPERIMENTAL PARAMETERS: H69AR viability with doxorubicin, CellTiter-Glo luminescence; at 10 µM; stronger effect = higher value
ENDPOINT LABEL: viability increase (%)
Answers are plain numbers, in %.

For every listed record, write down its viability increase.
1. Cc1ccc2c(c1)c(C)c(C)n2CC(O)Cn1nc(C)cc1C (stereo unspecified)
2. O=C(O)c1cccc(NS(=O)(=O)c2cccc3cccnc23)c1
3. O=C(c1ccco1)N1CCCC(c2nc(-c3ccc(S(=O)(=O)NCc4ccccc4)cc3)no2)C1 (stereo unspecified)
4. O=C(Nc1ccccc1)c1ccc(S(=O)(=O)N2CCCCC2)cc1

[-4.76, 0.96, -2.74, 0.95]

For every listed record, write down its viability increase.
1. CC(=O)c1ccc(NC(=O)CSc2nnc(NC(=O)CN3CCOCC3)s2)cc1
2. COc1ccc(CN2CCN(c3cccc(C)c3C)CC2)cc1OC

-1.64
-1.96

====

Give differential viability (reversal) for every item shown.
METHOD DESCRIPTION: reversal of MRP1-mediated doxorubicin resistance, pilot screen, H69AR cells, doxorubicin co-treatment (AID 601)
EXPERIMENTAL PARAMETERS: H69AR cells + 2 uM doxorubicin, CellTiter-Glo, 72 h; at 10 µM; stronger effect = higher value
Give bare numbers, in %.

[[record]]
compound = "CCOC(=O)N1CCN(C(=O)CSCC(=O)Nc2nc(-c3ccc(OC)cc3)cs2)CC1"
endpoint_label = "differential viability (reversal)"
measure_unit = "%"
readout_value = 1.77


For every listed record, write down its differential viability (reversal).
1. CSc1nnc(-c2nnc(SC)n2-c2ccccc2)n1-c1ccccc1
2. COC(=O)CSc1nc(C)c(C(C)=O)cc1C#N
3. CC(=O)O[C@]1(C(C)=O)CC[C@H]2[C@@H]3C=C(C)C4=CC(=O)CC[C@]4(C)[C@H]3CC[C@@]21C
4. CCc1cc2ccc(C)cc2nc1SCC(=O)N1CCN(C(=O)c2ccco2)CC1
5. O=C(CN(C(=O)CCC(=O)Nc1nccs1)c1ccccc1F)NCC1CCCO1 (stereo unspecified)
6. c1ccc(-c2noc(C3CCCCC3)n2)nc1

1: 9.77; 2: 9.68; 3: 23.2; 4: -5.54; 5: 9.81; 6: 11.2

For every listed record, write down its differential viability (reversal).
1. Cc1ccc(N2CC(C(=O)Nc3nnc(C)s3)CC2=O)cc1 (stereo unspecified)
2. Cc1cc(C)n(-c2nc3c(c(=O)n(Cc4ccc(Cl)c(Cl)c4)c(=O)n3C)n2C)n1

1. 16.4
2. 5.92

For every listed record, write down its differential viability (reversal).
1. CC(NO)C(C)(C)NO (stereo unspecified)
2. Cc1ccc(-c2nnn(CC(=O)N(CC3CCCO3)C(C(=O)NC(C)(C)C)c3ccc(F)cc3)n2)o1 (stereo unspecified)

1: 11.2; 2: 3.52

====

METHOD DESCRIPTION: growth suppression of beta-catenin knockout HCT116, pilot screen, human colon tumor cells (AID 823);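 further: 0% = wells killed by 20 µM Hyamine and 100% = untreated DMSO cell wells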
EXPERIMENTAL PARAMETERS: CellTiter-Glo, 60 h, at 10 µM, stronger effect = lower value
Records with an inconclusive call do not appear.
ENDPOINT LABEL: viability (%)
One number for each entry, in %.

These solved cases illustrate the format of a correct answer.
[[record]]
molecule = "O=C(C1CCCN(S(=O)(=O)c2cccc3cccnc23)C1)N1CCN(c2ccccc2F)CC1 (stereo unspecified)"
endpoint_label = "viability"
measure_unit = "%"
readout_value = 73.2

[[record]]
molecule = "CC(C)c1nnc(NC(=O)CSc2ncn[nH]2)s1"
endpoint_label = "viability"
measure_unit = "%"
readout_value = 98.3

[[record]]
molecule = "CC(C)C(NC(=O)C12CC3CC(CC(C3)C1)C2)C(=O)NC1=NCCS1 (stereo unspecified)"
endpoint_label = "viability"
measure_unit = "%"
readout_value = 88


For every listed record, write down its viability.
1. CC(C)CCNC(=O)C1C2C=CC3(CN(Cc4ccccc4Cl)C(=O)C13)O2 (stereo unspecified)
2. CCN1CCN(c2nc(SC)nc3sc4c(c23)CC(C)(C)OC4)CC1
3. COc1ccc(-c2cc3ccccc3n2CC(O)Cn2nc(C)cc2C)cc1 (stereo unspecified)
4. CCOC(=O)N1CCN(C(=O)c2cc3cc(Br)ccc3oc2=O)CC1
5. COc1cccc(C2CC(c3ccc(Cl)cc3)n3nc(N)nc3N2)c1 (stereo unspecified)

1. 103
2. 66.9
3. 69.5
4. 94.9
5. 100

For every listed record, write down its viability.
1. COc1ccc(OCC(=O)NC2CC(C)(C)NC(C)(C)C2)cc1
2. CCOC(=O)c1c(NC(=O)c2ccc(Cl)s2)sc(C)c1C
3. CCN(CC)CCNC(=O)Cn1cnc2sc(C)c(S(=O)(=O)N3CCOCC3)c2c1=O

1: 103; 2: 12.6; 3: 99

====

METHOD DESCRIPTION: growth suppression of yeast trafficking mutant, preliminary HTS, modulators of trafficking downstream of Golgi apparatus project, 1536-format plate, OD 615 nm (AID 637)
EXPERIMENTAL PARAMETERS: yeast transport mutant growth, absorbance 615 nm, 18 h; stronger effect = higher value
Give inhibition for every item shown.
One number for each entry, in %.

[[record]]
compound = "COc1ccc(-c2cc(C(=O)Nc3ccc(C)cc3)no2)cc1"
measure_unit = "%"
readout_value = 41

[[record]]
compound = "CC1(C)CC(=O)C(C(=O)CCCCC(=O)C2C(=O)CC(C)(C)CC2=O)C(=O)C1"
measure_unit = "%"
readout_value = -0.5

[[record]]
compound = "CCC1c2ccc(C)n2CCN1C(=O)Nc1ccccc1OC (stereo unspecified)"
measure_unit = "%"
readout_value = 4.59


For every listed record, write down its inhibition.
1. Cc1c(NC(=O)C(C)OC(=O)COc2cccc3c2OC(C)(C)C3)c(=O)n(-c2ccccc2)n1C (stereo unspecified)
2. Cc1nc2c(o1)CCc1ccccc1C2O (stereo unspecified)
3. c1ccc(Cn2nnnc2CN2CCN(c3ncccn3)CC2)cc1
4. COc1cc(-c2nn3c(-c4cccnc4)nnc3s2)cc(OC)c1OC
5. CN(C#N)c1nc(N2CCOCC2)nc(N2CCOCC2)n1
6. Cc1ccc(CSC2=NCCN2C(=O)c2ccco2)cc1
7. NC(=O)NC(=O)CSc1cccc(C(F)(F)F)c1
8. Cc1cc(Cl)c(S(=O)(=O)N2CCN(c3ccc(F)cc3)CC2)cc1OCC(N)=O

[17.2, -2.95, 0.98, -4.35, 6.35, 3.83, 2.22, 8.85]

====

METHOD DESCRIPTION: Restrictive medium S. cerevisiae growth inhibition, OD615, pilot screen of yeast lifespan reduction project, restrictive growth control (AID 706);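 further: modified DeaD lifespan yeast strain shifted to restrictive glucose medium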
EXPERIMENTAL PARAMETERS: OD615, 48 h, at 10 µM, stronger effect = higher value
Give growth inhibition for every item shown.
Numbers only, in %.

These solved cases illustrate the format of a correct answer.
[[record]]
compound = "COc1ccc2[nH]c(C)c(CCN3C(=O)C4CC=CCC4C3=O)c2c1 (centres undefined)"
endpoint_label = "growth inhibition"
readout_value = -15.3

[[record]]
compound = "N#CN=C1SCCS1"
endpoint_label = "growth inhibition"
readout_value = -14.9

[[record]]
compound = "O=C(O)CCC(=O)N1CCc2cc(S(=O)(=O)N3CCN(c4ccc(F)cc4)CC3)ccc21"
endpoint_label = "growth inhibition"
readout_value = 6.97

[[record]]
compound = "O=C1c2ccccc2C(Nc2ccc3c(c2)OCCO3)N1c1ccccn1 (centres undefined)"
endpoint_label = "growth inhibition"
readout_value = -13.5


For every listed record, write down its growth inhibition.
1. O=C(NCc1ccccn1)c1ccc2ccccc2n1
2. Cn1c(Cn2c(=O)sc3ccccc32)nnc1SCc1ccc(F)cc1

1. -7.25
2. -5.41
